// provenance: the Immune Epitope Database (IEDB)

# target-or-system: HLA-B*57:01
# protocol: IEDB peptide-MHC binding, purified MHC/competitive/radioactivity; bounds were set here for any values at or beyond the usual limits of such assays
# condition-details: source organism: Bordetella pertussis

>  <macromolecule-sequence>
RTRGQARSG

>  <censoring-qualifier>
=

>  <IC50 [µM]>
11.8

$$$$
>  <macromolecule-sequence>
RVRALAWLL

>  <censoring-qualifier>
=

>  <IC50 [µM]>
0.709

$$$$
>  <macromolecule-sequence>
HVSKEEQYY

>  <censoring-qualifier>
≥

>  <IC50 [µM]>
70.4

$$$$

====

# target-or-system: HLA-B*44:03
# protocol: IEDB peptide-MHC binding, purified MHC/competitive/radioactivity; bounds were set here for any values at or beyond the usual limits of such assays
# condition-details: source organism: Bordetella pertussis
Parameter IC50: see the listing below.

>  <macromolecule-sequence>
YENKSSTPL

>  <IC50 / µM>
37.5

$$$$
>  <macromolecule-sequence>
YIWGLYQTY

>  <IC50 / µM>
0.471

$$$$
>  <macromolecule-sequence>
QAIVVGKDL

>  <IC50 / µM>
31.8

$$$$
>  <macromolecule-sequence>
VEDIGGKNY

>  <IC50 / µM>
16

$$$$
